Please respond with reported z-score for every item in the list.
test: HepG2 liver cancer cell viability effects, profiling panel, resazurin fluorescence, 24 h, PK04 Diversity Set (AID 1172); details: higher = more signal; note: test concentration not given here

Per the record, `C=C/C=C/[C@H]1C(=C)CN([C@@H](Cc2ccccc2)C(=O)OC)[C@@H]1[C@H](O)Cc1ccccc1` has z-score of 0.28

Per the record, `CO[C@H]1O[C@H](CO)[C@@H](OC(=O)Nc2ccc(Br)cc2)[C@H](OC(=O)c2cc3ccccc3[nH]2)[C@H]1OC(=O)c1cc2ccccc2[nH]1` has z-score of -3.36

Per the record, `C=CCNC(=O)[C@@H]1[C@H]2C(=O)O[C@H](c3ccccc3)[C@H](c3ccccc3)N2[C@H](c2ccccc2OCCO)[C@@]12C(=O)N(C(=O)OCCOC)c1ccc(C#CCNC(N)=O)cc12` has z-score of -0.359

---

experiment: RPMI8226 myeloma cell viability, profiling panel, resazurin fluorescence, basal, 24 h, PK04 Diversity Set (AID 1180); conditions: higher = more signal;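 note: RPMI8826 multiple myeloma cell line at 5000 cells per well; test concentration not given here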
Please respond with reported z-score for every item in the list.
Output: the number by itself.

Per the record, CC(C)(C)OC(=O)CC[C@]1(C(=O)NCC(O)CO)COC(c2ccc(OCCCO)cc2)=N1 (some centres undefined) has z-score of 0.467

Per the record, `COc1ccc([Si](C)(C)[C@@H]2[C@@H](CCO)O[C@]3(C(=O)N(Cc4ccc(N5C(=O)COc6ccccc65)cc4)c4ccccc43)[C@H]2C)cc1` has z-score of -3.64

Per the record, `COCCOC(=O)N1C(=O)[C@@]2(c3cc(C#Cc4ccc(OC)cc4)ccc31)[C@H](C(N)=O)[C@H]1C(=O)O[C@H](c3ccccc3)[C@H](c3ccccc3)N1[C@@H]2c1ccccc1OCCO` has z-score of -2.68

Per the record, `CC(C)(C)OC(=O)CC[C@@]1(C(=O)NCCN2CCOCC2)N=C(c2ccc(OCCCO)cc2)O[C@@H]1c1ccccc1N=[N+]=[N-]` has z-score of -0.601

---

experiment: fission yeast growth modulation, primary screen, strain 972, OD600, 24 h, no modulator (AID 1090);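 note: basal condition with compound alone and no growth modifier present; test concentration not given here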; settings: S. pombe 972 growth, higher = more signal, called active from +8 up or from −8 down
Please respond with reported z-score for every item in the list.
Output: the number by itself.

Per the record, `C=C(COC)/C(=C/C[C@@H](OC(C)=O)c1ccc(OCCO)cc1)c1cc(C(=O)OC)ccc1OC` has z-score of -0.51

Per the record, `COCCOC(=O)N1C(=O)[C@@]2(c3cc(C#CC4=CCCCC4)ccc31)[C@H](C(=O)Nc1nc3ccccc3s1)[C@H]1C(=O)O[C@H](c3ccccc3)[C@H](c3ccccc3)N1[C@@H]2c1ccccc1OCCO` has z-score of 0.812

Per the record, `[N-]=[N+]=NCc1ccccc1[C@@H]1OC(c2ccc(OCCCO)cc2)=N[C@]1(Cc1ccccc1N=[N+]=[N-])C(=O)N1CCOCC1` has z-score of -1.59

Per the record, COc1cc2c(cc1O)C(C1CC1)N(Cc1cc3c(cc1Br)OCO3)CC2 (centres undefined) has z-score of -3.12

---

target: E3 ubiquitin-protein ligase XIAP (Homo sapiens) (UniProt P98170); test: XIAP binders, primary screen, biophysical, small-molecule microarray, fluorescence 635 nm (AID 1181); conditions: small-molecule microarray binding, higher = more signal;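 note: score merges 667 nm emission and signal to noise over triplicate slides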
Sequence (P98170 whole entry, looked up): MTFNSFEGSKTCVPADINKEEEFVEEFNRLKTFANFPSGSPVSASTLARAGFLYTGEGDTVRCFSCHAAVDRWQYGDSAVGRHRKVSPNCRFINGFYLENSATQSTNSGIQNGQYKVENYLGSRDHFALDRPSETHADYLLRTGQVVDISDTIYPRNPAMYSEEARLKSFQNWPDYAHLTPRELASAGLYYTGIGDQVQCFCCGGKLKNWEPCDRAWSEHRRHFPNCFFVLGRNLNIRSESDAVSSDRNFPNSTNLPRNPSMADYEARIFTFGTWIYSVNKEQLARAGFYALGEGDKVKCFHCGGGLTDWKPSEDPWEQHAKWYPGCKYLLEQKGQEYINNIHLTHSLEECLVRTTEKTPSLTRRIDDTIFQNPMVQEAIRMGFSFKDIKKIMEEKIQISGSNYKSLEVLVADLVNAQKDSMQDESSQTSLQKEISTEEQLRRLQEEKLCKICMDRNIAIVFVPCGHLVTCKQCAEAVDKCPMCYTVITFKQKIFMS
Please respond with reported composite z-score for every item in the list.
Output: the number by itself.

Per the record, CC(C)C[C@H]1NC(=O)[C@@]23C(=O)N[C@@H](Cc4ccccc4)C2[C@H](C)[C@@]2(C)O[C@H]2C3/C=C/C/C=C\CNC(=O)[C@H](Cc2ccccc2)NC1=O (some centres not stated) has composite z-score of 0.0842

Per the record, `C=C(CCCC)/C(=C/C[C@@H](OC(C)=O)c1ccccc1OCCO)c1cnc2ccccc2c1` has composite z-score of -0.198

Per the record, C#CCN(Cc1ccccc1Br)C(/C=C/c1ccccc1)CO (configuration not stated) has composite z-score of 0.147

Per the record, CN1C(=O)C2C=CC(C(O)Cc3ccccc3)N(Nc3ccccc3)C2C1=O (configuration not stated) has composite z-score of -0.189

Per the record, COc1ccc(COC2OC[C@]3(C)[C@H]4C5=C(CN3C(=O)OC(C)(C)C)[C@H](C)C(CO)C(CO)C5CC[C@@H]24)cc1 (some centres not stated) has composite z-score of -0.02

Per the record, `COCCOC(=O)N1C(=O)[C@@]2(c3cc(C#CC4=CCCCC4)ccc31)[C@H](C(N)=O)[C@H]1C(=O)O[C@H](c3ccccc3)[C@H](c3ccccc3)N1[C@@H]2c1ccc(OCCO)cc1` has composite z-score of -0.102

Per the record, `C=CC[C@]12N=C(c3ccc(OCCCO)cc3)O[C@H]1c1ccccc1N(Cc1ccccc1)C2=O` has composite z-score of -0.122

Data origin, for the record: PubChem BioAssay
